Test system: TK-10 renal
Assay: NCI-60 one-dose screen, 48 h (100 = growth as untreated, 0 = no growth, -100 = all killed)
Conditions: 10 µM unless noted
Compounds without any hit were thinned out: in the full panel of roughly 83,000, 20% have a hit.
Record form. Attribute: growth. Fill in for each entry.
Hi! Could you send only the number? It should be in %, unit omitted.

The compound listed as O=S(=O)(Nc1cc(Sc2cccc3cccnc23)c(O)c2ccccc12)c1ccc(F)cc1 has a reported growth of 17.1

The compound listed as CCN(c1cc(-c2ccc(CN3CCC(/C=C/S(=O)(=O)c4ccccc4)CC3)cc2)cc(C(=O)NCc2c(C)cc(C)[nH]c2=O)c1C)C1CCOCC1 has a reported growth of 121

The compound listed as C/C=C(/C)C(=O)O[C@@H]1CC(C)(C)CC2C34OC(=O)[C@@]21CC[C@@]3(C)[C@]1(C)CCC2C(C)(C)C(=O)CC[C@]2(C)C1C[C@@H]4Cl (stereo partly drawn) has a reported growth of 87.2

The compound listed as COc1ccc(/C=N\Nc2nc(SCC(C)C)nc(-c3ccc(OC)cc3)c2C#N)cc1 has a reported growth of -54.7

The compound listed as CC1(C)C(N)=Nc2cc(OCCCN3Cc4ccc(OCCc5cn(CC(=O)N6CCC(CCN7CCCC7)CC6)nn5)cc4C3)c(OCC3CC3)cc21 has a reported growth of 100

The compound listed as COc1cc(/C=C(/c2ccccc2)[N+](=O)[O-])c(OC)c2c1OCO2 has a reported growth of -88.1

The compound listed as COc1ccc(-c2csc(NC(=O)CN3CCN(CCO)CC3)n2)cc1NS(=O)(=O)c1cccc2c(N(C)C)cccc12 has a reported growth of 109

The compound listed as CC(C)=CCc1cc(O)c(O)c2oc3cc(O)cc(O)c3c(=O)c12 has a reported growth of 46.7

====

Record form. Attribute: growth. Fill in for each entry.
Test system: UACC-257 melanoma
Experiment: NCI-60 one-dose screen, 48 h (100 = growth as untreated, 0 = no growth, -100 = all killed)
Details: 10 µM unless noted
This is part of a sample that, as a whole, favours compounds with a hit. Of some 83,000 tested, about 20% had one in any assay.
Hi! Could you send only the number? It should be in %, unit omitted.

Item C=C(C)[C@@H]1CC[C@]2(C(=O)N3CCN(C)CC3)CC[C@]3(C)[C@H](CC[C@@H]4[C@@]5(C)CC(CCCNC(C)=O)(CCCNC(C)=O)[C@H](OC(C)=O)C(C)(C)[C@@H]5CC[C@]43C)[C@@H]12 ; assay system UACC-257 melanoma; growth reported as 109

Item O=S(=O)(O)c1ccc(N=Nc2ccc(N=Nc3cccc4ccccc34)c(S(=O)(=O)O)c2)cc1 ; assay system UACC-257 melanoma; growth reported as 107

Item CCOC(=O)c1cc2c(n1Cc1cc(OC)cc(OC)c1Br)-c1nc(NC(C)=O)sc1CCC2 ; assay system UACC-257 melanoma; growth reported as 53

Item CCOC(=O)c1ccc(Nc2ncnc3c2cnn3-c2cccc(F)c2)cc1 ; assay system UACC-257 melanoma; growth reported as 99.6

====

Test system: ACHN renal
Assay: NCI-60 one-dose screen, 48 h (100 = growth as untreated, 0 = no growth, -100 = all killed)
Conditions: 10 µM unless noted
About 83,000 compounds went through this panel and 20% of them were active in at least one assay; those are over-represented in the sample as a whole. Active and inactive are the calls of the source. Rule for the calls: active = growth percent below 10; inactive = the rest.
Record form. Attribute: growth. Fill in for each entry.

The compound listed as Nc1c(C(=O)Nc2ccncc2)sc2nc3c(cc12)CCCCCCCC3 has a reported growth of -98.8% (active)

The compound listed as CONC1=Nc2cc(NC(N)=NCc3ccccc3)c(N(C)C3CCCCC3)cc2OC1 has a reported growth of 79.1% (inactive)

The compound listed as Cc1ccc(-c2nc(C#N)c(S(=O)(=O)N(C)C)o2)cc1 has a reported growth of -59.4% (active)

The compound listed as COc1ccc(Cn2cc(C(=O)Nc3cccnc3Nc3ccccc3)nn2)cc1 has a reported growth of 105% (inactive)

The compound listed as Cc1ccc(-c2nc3nc(-c4ccc(F)cc4)nc(N4CCCNCC4)c3o2)cc1 has a reported growth of -99.3% (active)

The compound listed as O=C(CCCOc1ccc(Br)cc1)Nc1ncc(Cc2ccc(F)cc2)s1 has a reported growth of 72.9% (inactive)

The compound listed as CC(C)=CCc1cc(O)c(O)c2oc3cc(O)cc(O)c3c(=O)c12 has a reported growth of 41.5% (inactive)

The compound listed as NC(N)=NC(N)=NCCCc1ccco1 has a reported growth of 107% (inactive)

The compound listed as Cc1ccc(NC(=O)N/C(N)=N/c2nc(=O)c3ccccc3s2)cc1 has a reported growth of 102% (inactive)

The compound listed as N#C/C(=C\c1ccc(Br)cc1)n1nnc2c(F)cccc21 has a reported growth of -50.8% (active)

The compound listed as COc1ccc(-c2nc(Cl)c3c(C)nn(-c4ccc(F)cc4)c3n2)cc1 has a reported growth of 106% (inactive)

The compound listed as Cc1ccc2nc3ccccc3c(NCc3ccc(Cl)cc3)c2c1 has a reported growth of 33.3% (inactive)

The compound listed as Cn1cc(-c2nc3c(F)cc4[nH]ncc4c3c3c2CCCC3)c(C(F)F)n1 has a reported growth of 44.3% (inactive)

The compound listed as CCCCCCCCN(CCCCCCCC)CC(O)c1cc(Cl)ccc1OC (stereo unspecified) has a reported growth of 71.5% (inactive)

The compound listed as Nc1[nH]nc(Nc2ccccc2)c1-c1nc2ccccc2s1 has a reported growth of 15.5% (inactive)

The compound listed as COc1c(F)cc(-n2c(C(=O)N3CC(F)C3)cc3cccnc32)cc1F has a reported growth of 93.2% (inactive)

The compound listed as O=C1N=c2ccccc2=C1c1sc(=S)n(C2CC(=O)N(c3ccc(Cl)cc3)C2=O)c1O (stereo unspecified) has a reported growth of 93.9% (inactive)

The compound listed as Cc1ccc(-c2nc(SCC(=O)c3ccc(C#N)cc3)[nH]c(=O)c2C#N)cc1 has a reported growth of 96.1% (inactive)

The compound listed as CN1CCN(c2ccc(/C=C/C(=O)c3ccc(O)cc3)cc2)CC1 has a reported growth of 105% (inactive)

The compound listed as CCCn1nc(C(=O)N2CCCCC2)c2c1CCC(N1CCC(c3ccncc3)CC1)C2 (stereo unspecified) has a reported growth of 105% (inactive)

The compound listed as COc1cc(Nc2nc3ccccc3cc2C(=O)Nc2ccc(F)c(F)c2)cc(OC)c1OC has a reported growth of 5.68% (active)

The compound listed as Cc1nc2sc(C(=O)Nc3cccc(Cl)c3C)c(N)c2cc1C(O)c1ccccc1 (stereo unspecified) has a reported growth of 22.5% (inactive)

The compound listed as Cc1ccc(-c2nc([P+](c3ccccc3)(c3ccccc3)c3ccccc3)c(Nc3ccccc3)o2)cc1 has a reported growth of -11.6% (active)

The compound listed as C=CCN1C=CC(=O)[C@H](O[Si](C)(C)C(C)(C)C)[C@@H]1/C=C/c1ccccc1 has a reported growth of -73.1% [100 µM] (active)

The compound listed as Clc1ccc2c(NCCN3CCN(c4ccnc(N5CCCC5)n4)CC3)ccnc2c1 has a reported growth of 55.6% (inactive)

The compound listed as N=c1ccccn1CCO has a reported growth of 102% (inactive)

The compound listed as CN1C(=O)N(C)C2(c3ccccc3)N(CC(=O)Nc3ccccc3O)C(=O)NC12c1ccccc1 (stereo unspecified) has a reported growth of 102% (inactive)

The compound listed as CN1CCN(c2ccc(Nc3ncc(C(N)=O)c(NCCCNC(=O)C4CCC4)n3)cc2)CC1 has a reported growth of 61.8% (inactive)

The compound listed as COc1ccc2c(c1)c(C(=O)c1nc(-c3cn(C)c4ccccc34)no1)cn2C has a reported growth of 95.9% (inactive)

The compound listed as Nc1nc(CSc2n[nH]c(N)n2)nc(Nc2ccccc2)n1 has a reported growth of 98.6% (inactive)

The compound listed as C=C(C)[C@@H]1CC[C@]2(C(=O)N3CCN(C)CC3)CC[C@]3(C)[C@H](CC[C@@H]4[C@@]5(C)CC(CCCNC(C)=O)(CCCNC(C)=O)[C@H](OC(C)=O)C(C)(C)[C@@H]5CC[C@]43C)[C@@H]12 has a reported growth of 101% (inactive)

The compound listed as Nc1ncc(-c2ccc3ncnc(N4CCc5ccc(Cl)cc54)c3c2)cc1C(F)(F)F has a reported growth of 11% (inactive)

The compound listed as C#Cc1cc(C(=O)Nc2ccc(CN3CCN(C)CC3)c(C(F)(F)F)c2)ccc1C has a reported growth of 92.2% (inactive)

The compound listed as COc1ccc(Oc2nc(Nc3ccc(N4CCOCC4)cc3)ncc2NC(=O)c2cccc(C(F)(F)F)c2)cc1 has a reported growth of 79.9% (inactive)

The compound listed as O=C1C(=C(O)c2ccccc2)C(=O)c2ccccc21 has a reported growth of 103% (inactive)

The compound listed as O=S(=O)(Nc1cc(Sc2cccc3cccnc23)c(O)c2ccccc12)c1ccc(F)cc1 has a reported growth of 0.351% (active)

The compound listed as C=C(CNCCO)[C@@H]1CC[C@]2(CO)CC[C@]3(C)[C@H](CC[C@@H]4[C@@]5(C)CCC(NCCc6ccc(O)cc6)C(C)(C)[C@@H]5CC[C@]43C)[C@@H]12 (stereo partly specified) has a reported growth of -96.6% (active)

The compound listed as S=c1nc(CS)[nH]c2ccccc12 has a reported growth of 93.5% (inactive)

The compound listed as COc1ccc(Nc2ncnc3ccc(-c4cncc(NS(C)(=O)=O)c4)cc23)cc1Cl has a reported growth of 80.4% (inactive)

The compound listed as Cc1ccccc1SSc1ccccc1C has a reported growth of 0.0765% (active)

The compound listed as COc1ccc(-c2ccccc2)cc1-c1c(Nc2cc(Cl)cc(Cl)c2O)c(=O)c1=O has a reported growth of 3.24% (active)
